# System: T98G
# assayOverview: Cytotoxicity against human T98G cells after 72 hrs by WST-1 assay
# Format: functional, cell-based
pEC50: −log10 of the molar value.
Here the recorded pEC50 is given for each entry.
experimentalEndpoint: pEC50

INSERT INTO results (molecule, experimentalendpoint, valuerelationsign, valuemeasured) VALUES
  ('Cc1ccc(C(=O)c2ccc3c(c2)c2ccccc2n3CC(F)(F)F)c2ccccc12', 'pEC50', '=', 5.25),
  ('CCCn1c2ccccc2c2cc(C(=O)c3ccc(C)c4ccccc34)ccc21', 'pEC50', '<', 5.00),
  ('CCn1c2ccccc2c2cc(C(=O)c3ccc(C)c4ccccc34)ccc21', 'pEC50', '=', 7.06),
  ('CCn1c2ccccc2c2cc(C(=S)c3ccc(C)c4ccccc34)ccc21', 'pEC50', '<', 5.00),
  ('CCn1c2ccccc2c2cc(C(=O)c3cccc4ncccc34)ccc21', 'pEC50', '=', 6.74),
  ('CCn1c2ccccc2c2cc(C(=O)c3ccc(C)cc3)ccc21', 'pEC50', '=', 6.00),
  ('CCn1c2ccccc2c2cc(C(=O)N3CCN(C)CC3)ccc21', 'pEC50', '<', 5.00),
  ('CCn1c2ccccc2c2cc(C(=O)N3CCCc4ccccc43)ccc21', 'pEC50', '=', 6.12),
  ('Cc1ccc(C(=O)n2c3ccccc3c3ccccc32)c2ccccc12', 'pEC50', '=', 6.02),
  ('CCn1c2ccccc2c2cc(C(=O)c3ccc(F)cc3)ccc21', 'pEC50', '=', 5.10),
  ('CCn1c2ccccc2c2cc(C(O)c3ccc(C)c4ccccc34)ccc21 (configuration not stated)', 'pEC50', '=', 6.25),
  ('CCn1c2ccccc2c2cc(C(=O)c3ccc(Cl)cc3)ccc21', 'pEC50', '=', 5.82);

----------
// reported pEC50 per item
# Tested on: GBM
# assayOverview: Cytotoxicity against patient-derived mesenchymal GBM cells after 72 hrs by WST-1 assay
# Type: functional, cell-based
# conditionDescription: Homo sapiens
pEC50: −log10 of the molar value.
experimentalEndpoint: pEC50

INSERT INTO results (molecule, valuemeasured) VALUES
  ('CCn1c2ccccc2c2cc(C(=O)c3cccc4ncccc34)ccc21', 6.47),
  ('CCn1c2ccccc2c2cc(C(=O)N3CCCc4ccccc43)ccc21', 5.74),
  ('CCn1c2ccccc2c2cc(C(O)c3ccc(C)c4ccccc34)ccc21 (centres undefined)', 6.41),
  ('CCn1c2ccccc2c2cc(C(=O)c3ccc(C)c4ccccc34)ccc21', 6.57);

----------
Parameter: inhibition. Scope: all listed entries.
# Species: Bos taurus
# assayOverview: Inhibition of [3H]colchicine binding to bovine brain tubulin at 5 uM after 1 hr liquid scintillation counting assay relative to control
experimentalEndpoint: inhibition (%)

INSERT INTO results (compound, experimentalendpoint, valuemeasured) VALUES
  ('CCn1c2ccccc2c2cc(C(O)c3ccc(C)c4ccccc34)ccc21 (centres undefined)', 'inhibition', 70),
  ('CCn1c2ccccc2c2cc(C(=O)N3CCCc4ccccc43)ccc21', 'inhibition', 41),
  ('CCn1c2ccccc2c2cc(C(=O)c3ccc(C)c4ccccc34)ccc21', 'inhibition', 53),
  ('CCn1c2ccccc2c2cc(C(=O)c3cccc4ncccc34)ccc21', 'inhibition', 91);
